system: T1, Human CD3eg linker (human)
T1 construct: single-chain construct; also called recombinant human CD3
T1 chain: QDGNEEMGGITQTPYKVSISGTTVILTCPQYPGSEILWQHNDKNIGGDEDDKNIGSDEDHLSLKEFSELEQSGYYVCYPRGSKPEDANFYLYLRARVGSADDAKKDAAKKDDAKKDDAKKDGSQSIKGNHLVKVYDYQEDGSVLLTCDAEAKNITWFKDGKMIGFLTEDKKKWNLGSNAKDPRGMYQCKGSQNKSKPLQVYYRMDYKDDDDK
assay comment: SPR, vs unmutated H183/L072
measure name: fold change of affinity (fold)
Give bare numbers, in fold.

binder="dBBDu183H P100eK/dBBDu072L (antibody, name in Kabat numbering, V domains shown) VH: QVQLVESGGGLVQPGRSLRLSCAASGFTFSNAWMHWVRQAPGKGLEWVAQIKDKGNAYAAYYAPSVKGRFTISRDDSKNSIYLQMNSLKTEDTAVYYCHYVHYASASTVLKAFGVDAWGQGTTVTVSS VL: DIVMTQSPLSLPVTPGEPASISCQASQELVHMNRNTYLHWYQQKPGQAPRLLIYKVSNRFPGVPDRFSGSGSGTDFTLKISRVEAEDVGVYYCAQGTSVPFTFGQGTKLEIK" value=2.1

// each binder listed below needs its fold change of affinity
1. dBBDu183H A98F/dBBDu072L (antibody, name in Kabat numbering, V domains shown) VH: QVQLVESGGGLVQPGRSLRLSCAASGFTFSNAWMHWVRQAPGKGLEWVAQIKDKGNAYAAYYAPSVKGRFTISRDDSKNSIYLQMNSLKTEDTAVYYCHYVHYFSASTVLPAFGVDAWGQGTTVTVSS VL: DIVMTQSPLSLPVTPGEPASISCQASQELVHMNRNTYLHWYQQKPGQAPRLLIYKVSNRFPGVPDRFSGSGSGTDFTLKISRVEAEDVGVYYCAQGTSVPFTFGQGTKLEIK
2. dBBDu183H V95Y/dBBDu072L (antibody, name in Kabat numbering, V domains shown) VH: QVQLVESGGGLVQPGRSLRLSCAASGFTFSNAWMHWVRQAPGKGLEWVAQIKDKGNAYAAYYAPSVKGRFTISRDDSKNSIYLQMNSLKTEDTAVYYCHYYHYASASTVLPAFGVDAWGQGTTVTVSS VL: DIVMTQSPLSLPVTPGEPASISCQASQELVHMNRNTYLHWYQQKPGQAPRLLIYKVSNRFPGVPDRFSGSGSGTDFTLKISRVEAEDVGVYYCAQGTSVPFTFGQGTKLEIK
3. dBBDu183H Y94D/dBBDu072L (antibody, name in Kabat numbering, V domains shown) VH: QVQLVESGGGLVQPGRSLRLSCAASGFTFSNAWMHWVRQAPGKGLEWVAQIKDKGNAYAAYYAPSVKGRFTISRDDSKNSIYLQMNSLKTEDTAVYYCHDVHYASASTVLPAFGVDAWGQGTTVTVSS VL: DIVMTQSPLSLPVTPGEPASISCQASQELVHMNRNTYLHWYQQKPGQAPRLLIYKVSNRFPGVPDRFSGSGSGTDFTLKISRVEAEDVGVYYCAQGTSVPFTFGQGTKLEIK
4. dBBDu183H Y94Q/dBBDu072L (antibody, name in Kabat numbering, V domains shown) VH: QVQLVESGGGLVQPGRSLRLSCAASGFTFSNAWMHWVRQAPGKGLEWVAQIKDKGNAYAAYYAPSVKGRFTISRDDSKNSIYLQMNSLKTEDTAVYYCHQVHYASASTVLPAFGVDAWGQGTTVTVSS VL: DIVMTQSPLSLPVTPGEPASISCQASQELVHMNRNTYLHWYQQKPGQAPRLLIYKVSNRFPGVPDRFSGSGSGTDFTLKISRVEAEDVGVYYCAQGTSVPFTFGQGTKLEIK

[12.1, 0, 0, 0.4]
